Data provenance: patent US20060194739

Reported IC50 values are given for each entry in this list.
molecular target: ORL1 (UniProt P41146); test: competition
Sequence (P41146 whole entry): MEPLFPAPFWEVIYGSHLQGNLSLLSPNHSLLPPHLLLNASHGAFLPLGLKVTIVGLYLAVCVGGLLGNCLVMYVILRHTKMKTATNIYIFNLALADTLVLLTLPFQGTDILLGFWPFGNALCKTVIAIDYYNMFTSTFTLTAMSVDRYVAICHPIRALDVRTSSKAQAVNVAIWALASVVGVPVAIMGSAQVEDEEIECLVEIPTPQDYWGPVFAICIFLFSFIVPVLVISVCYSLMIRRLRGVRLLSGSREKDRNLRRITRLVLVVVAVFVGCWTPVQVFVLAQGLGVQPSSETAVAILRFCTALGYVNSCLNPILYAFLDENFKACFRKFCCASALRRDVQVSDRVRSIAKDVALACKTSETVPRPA
*: point of attachment. Hexanoyl = CCCCCC(=O)*; Propionyl = CCC(=O)*
assay.readout: IC50 (nM)

binder="Hexanoyl-AYYRWR-NH2 (SMILES CCCCCC(=O)N[C@@H](C)C(=O)N[C@@H](Cc1ccc(O)cc1)C(=O)N[C@@H](Cc1ccc(O)cc1)C(=O)N[C@@H](CCCNC(=N)N)C(=O)N[C@@H](Cc1c[nH]c2ccccc12)C(=O)N[C@@H](CCCNC(=N)N)C(N)=O) [IV-33-B]" observed_result=1020
binder="Propionyl-RYYRAR-NH2 (SMILES CCC(=O)N[C@@H](CCCNC(=N)N)C(=O)N[C@@H](Cc1ccc(O)cc1)C(=O)N[C@@H](Cc1ccc(O)cc1)C(=O)N[C@@H](CCCNC(=N)N)C(=O)N[C@@H](C)C(=O)N[C@@H](CCCNC(=N)N)C(N)=O) [IV-29-B]" observed_result=1890
binder="Hexanoyl-RYYAWR-NH2 (SMILES CCCCCC(=O)N[C@@H](CCCNC(=N)N)C(=O)N[C@@H](Cc1ccc(O)cc1)C(=O)N[C@@H](Cc1ccc(O)cc1)C(=O)N[C@@H](C)C(=O)N[C@@H](Cc1c[nH]c2ccccc12)C(=O)N[C@@H](CCCNC(=N)N)C(N)=O) [IV-39-B]" observed_result=1000
